- method_summary: activity coefficient (dimensionless); of the first substance listed, at infinite dilution; xn = mol fraction of the nth substance listed
- experimental_context: 338.15 K; 101 kPa; Liquid; Chromatography; x1 = 0
Tick condition met if activity coefficient is 3 or greater. Tick condition not met if activity coefficient is less than 3.

Cc1ccc(C)cc1 [1,4-dimethylbenzene] + CCCCCC[n+]1ccc2ccccc2c1.N#C[S-]	condition not met
CCCC(=O)CC [3-hexanone] + CCCCCC[n+]1ccc2ccccc2c1.N#C[S-]	condition not met
CCCCCC [hexane] + CCCCCC[n+]1ccc2ccccc2c1.N#C[S-]	condition met
C#CCCCCC [1-heptyne] + CCCCCC[n+]1ccc2ccccc2c1.N#C[S-]	condition met
CO [methanol] + CCCCCC[n+]1ccc2ccccc2c1.N#C[S-]	condition not met

Query: API: above_or_equal(metric=activity coefficient, cutoff=3) for item Cc1ccccc1 [toluene] + CCCCCC[n+]1ccc2ccccc2c1.N#C[S-]
Reply: condition not met

Query: Answer whether activity coefficient of CCOC(C)(C)C [2-ethoxy-2-methylpropane] + CCCCCC[n+]1ccc2ccccc2c1.N#C[S-] is greater than or equal to 3.
Reply: condition met

Query: Hi team, for COC(C)(C)C [2-methoxy-2-methylpropane] + CCCCCC[n+]1ccc2ccccc2c1.N#C[S-] , is the recorded activity coefficient at or above 3?
Reply: condition met

* * *

- method_summary: activity coefficient (dimensionless); of the first substance listed, at infinite dilution; xn = mol fraction of the nth substance listed
- experimental_context: 358.15 K; 101 kPa; Liquid; Chromatography; x1 = 0
// reported activity coefficient per item
Could you keep your reply to the number by itself?

C#CCCCC [1-hexyne] + CCCCCC[n+]1ccc2ccccc2c1.N#C[S-]	3.9

Query: Give its activity coefficient value. Item: CCc1ccccc1 [ethylbenzene] + CCCCCC[n+]1ccc2ccccc2c1.N#C[S-]
Reply: 3.06

Query: Using the record for CCC(C)(C)C [2,2-dimethylbutane] + CCCCCC[n+]1ccc2ccccc2c1.N#C[S-] , report its activity coefficient.
Reply: 31.2

Query: What does the data say about its activity coefficient? Entry: CCCC(C)=O [pentan-2-one] + CCCCCC[n+]1ccc2ccccc2c1.N#C[S-]
Reply: 2.12

Query: Request the reported activity coefficient associated with c1ccncc1 [pyridine] + CCCCCC[n+]1ccc2ccccc2c1.N#C[S-]
Reply: 0.729

Query: Find the recorded activity coefficient belonging to CCCCCCCCC [nonane] + CCCCCC[n+]1ccc2ccccc2c1.N#C[S-] and report it.
Reply: 54.5

Query: Return reported activity coefficient; argument: Cc1ccc(C)cc1 [1,4-dimethylbenzene] + CCCCCC[n+]1ccc2ccccc2c1.N#C[S-]
Reply: 2.9

Query: Item CCCCCCC [heptane] + CCCCCC[n+]1ccc2ccccc2c1.N#C[S-] has what recorded activity coefficient?
Reply: 32

Query: Which activity coefficient value is on record for CCCO [propan-1-ol] + CCCCCC[n+]1ccc2ccccc2c1.N#C[S-] ?
Reply: 0.664

* * *

activity coefficient: recorded values
- method_summary: activity coefficient (dimensionless); of the first substance listed, at infinite dilution; xn = mol fraction of the nth substance listed
- experimental_context: 338.15 K; 101 kPa; Liquid; Chromatography; x1 = 0
Give the figure only, with no unit attached.

CCCCCCCCCC [decane] + CCCCCC[n+]1ccc2ccccc2c1.N#C[S-]	84.1
c1ccccc1 [benzene] + CCCCCC[n+]1ccc2ccccc2c1.N#C[S-]	1.48
CCC(C)(C)C [2,2-dimethylbutane] + CCCCCC[n+]1ccc2ccccc2c1.N#C[S-]	45.5
CCCCO [butan-1-ol] + CCCCCC[n+]1ccc2ccccc2c1.N#C[S-]	0.829
CC#N [acetonitrile] + CCCCCC[n+]1ccc2ccccc2c1.N#C[S-]	1.01
CC(C)=O [acetone] + CCCCCC[n+]1ccc2ccccc2c1.N#C[S-]	1.31

Query: Can you share its activity coefficient? I mean this compound: CCCCC(C)=O [2-hexanone] + CCCCCC[n+]1ccc2ccccc2c1.N#C[S-]
Reply: 2.63

Query: Dear colleague, I am looking for the recorded activity coefficient of the following compound: O [water] + CCCCCC[n+]1ccc2ccccc2c1.N#C[S-]
Reply: 0.406

Query: // query activity coefficient value for entry CCC(=O)CC [pentan-3-one] + CCCCCC[n+]1ccc2ccccc2c1.N#C[S-]
Reply: 2.11

Numbers sourced from the NIST ThermoML archive (doi:10.1016/j.jct.2013.02.004).
